Test system: SK-OV-3 ovarian
PROCEDURE_TEXT: NCI tumour cell line growth inhibition, 48 h
READOUT_KIND: TGI

COMPOUND	VAL
COC(=O)/C(C#N)=C1\NC(=O)c2ccccc21	> 100 µM
O=C1C=CC(=O)c2c1ccc1c3ccccc3n(CCCCCCCCCCCCn3c4ccccc4c4ccc5c(c43)C(=O)C=CC5=O)c21	> 100 µM
CC(C)(C)OC(=O)NCCCCC1NC(=O)[C@@H]2Cc3c([nH]c4ccccc34)C(C3CCCCC3)N2C1=O (stereo not given in full)	> 100 µM
CCOC(=O)C(SCCO)C(C(=O)OCC)n1cnc2c(=O)[nH]c(NC(C)=O)nc21 (stereo not given)	> 100 µM
CNS(=O)(=O)NNS(=O)(=O)c1ccccc1	> 100 µM

Data request, read-out TGI, for O=C1/C(=C/c2ccccc2)N=C2Sc3c(nc[nH]c3=O)N12
> 100 µM

Data request, read-out TGI, for [N-]=[N+]=NC[C@H]1OCO[C@H](CN=[N+]=[N-])[C@@H](OCCOCCCl)[C@@H]1OCCOCCCl
> 100 µM

Data request, read-out TGI, for ClCCN1CCC2(CC1)SSC1(CCN(CCCl)CC1)S2
98.7 µM

Data request, read-out TGI, for O=C(CC(=O)c1cccc2ccccc12)C(=O)Nc1ccc(Cl)cc1
> 100 µM

Data request, read-out TGI, for COc1ccc(-c2c(C#N)c(-c3ccc(C)cc3)n(NS(=O)(=O)c3ccc(C)cc3)c(=O)c2C#N)cc1
> 100 µM

Measured values drawn from PubChem BioAssay (NCI) for this set.
